TARGET_DESC: Ras-related C3 botulinum toxin substrate 1 (Homo sapiens) (UniProt P63000)
TEST_DETAILS: compounds altering fluorescent GTP loading on wildtype Rac1 – biochemical, GST-Rac1 beads, flow cytometry, multiplex, primary screen (AID 757)
CONDITION_INFO: at 10 µM, actives lie on both sides, 0 = cold GTP competed, 100 = untreated
In all, about 190,000 compounds went through this assay and about 520 (0.27%) were called active. About 2% were inconclusive and are not listed.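 The calls were made as follows: active = GTP binding activity at least 20 points away from the 100% control level, either lower or higher; inconclusive = compound flagged as likely green fluorescent, judged across all proteins; inactive = the rest.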 Many of the other results were omitted from the sample, so actives are more common in it than they were.
Classes used: True = active, False = inactive

> print(dat)
                                    compound  qualitative.label
 1              CCCCCN1CC(O)=C(c2ccccc2)C1=N              False
 2  COC(=O)C1=C(C)NC(=O)/C1=C/c1ccc(CNS(=O)(=O)c2ccc(C)cc2)o1              False
 3   CCOC(=O)CCCN1CC(O)=C(c2nc3ccccc3s2)C1=N              False
 4  O=S(=O)(NCc1ccccc1)c1ccc(S(=O)(=O)N2CCCC2)cc1              False
 5  COc1ccccc1-c1noc(CSc2nc(C)cc(=O)[nH]2)n1              False
 6                 CSc1ncccc1C(=O)NC1CCCCCC1              False
 7    O=C(Nc1ccccc1)N1CCN(C(=O)Nc2ccccc2)CC1              False
 8  CN(C)c1ccc(C(=S)N2CCN(C(=S)Nc3ccc(Cl)cc3)CC2)cc1              False
 9  CCOC(=O)N1CCN(Cc2nc(Cc3cccc(C(F)(F)F)c3)no2)CC1              False
10  CCCCCN1CC(O)=C(c2nc(-c3ccc(Cl)cc3)cs2)C1=N               True
11           COc1ccc(NC(=O)c2c(SC)nsc2SC)cc1              False

###

TARGET_DESC: Ras-related C3 botulinum toxin substrate 1 (Homo sapiens) (UniProt P63000)
TEST_DETAILS: compounds altering fluorescent GTP loading on wildtype Rac1 – biochemical, GST-Rac1 beads, flow cytometry, multiplex, primary screen (AID 757)
CONDITION_INFO: at 10 µM, actives lie on both sides, 0 = cold GTP competed, 100 = untreated
Among all 190,000 compounds or so, about 520 (0.27%) were called active. Inconclusive results (about 2%) are left out. For the sample, actives were picked, then their nearest neighbours and some compounds at random.
MEASURED_ATTRIBUTE: GTP binding activity (% of control) (%)

> print(dat)
                                    compound                   measured.attribute  recorded.number
 1  CCOC(=O)c1ccc(NNC(C)=O)c([N+](=O)[O-])c1  GTP binding activity (% of control)               99
 2      COc1cc(C=O)c(Br)cc1OCC(=O)NCc1ccccc1  GTP binding activity (% of control)               97
 3  Cc1csc(CN(C)C(=O)CC2C(=O)NCCN2CC(C)(C)C)n1 (stereo not drawn)  GTP binding activity (% of control)               98
 4  CCCNC(=S)N1CCCC(c2nc3ccccc3[nH]2)C1 (stereo not drawn)  GTP binding activity (% of control)               97
 5           Nc1ccc(-c2sc(N)nc2-c2ccccc2)cc1  GTP binding activity (% of control)               98
 6  CC1(C)CN=C(N2CCN(c3ncnc4sc5c(c34)CCCC5)CC2)S1  GTP binding activity (% of control)               99
 7       CCOC(=O)Cc1ncccc1C(=O)Nc1ccc(OC)cc1  GTP binding activity (% of control)              100
 8  COc1ccc(NC(=O)c2ccccc2[N+](=O)[O-])cc1OC  GTP binding activity (% of control)              105
 9  COc1cc(COCC(O)CN2CCN(Cc3ccc4c(c3)OCO4)CC2)cc(OC)c1OC (stereo not drawn)  GTP binding activity (% of control)              102
10              N#Cc1ccc(CSc2nnc3ccccn23)cc1  GTP binding activity (% of control)              104
11  Cc1ccc(NC(=O)CSc2nnc(CNC(=O)c3ccccc3F)o2)cc1  GTP binding activity (% of control)               92
12  CCN(CC)CCCNC(=O)Cn1cnc2sc(C)c(S(=O)(=O)N3CCN(c4ncccn4)CC3)c2c1=O  GTP binding activity (% of control)               93
13  COc1ccc(-n2c(O)c(C=NCC(c3ccco3)N3CCCC3)c3ccccc3c2=O)cc1OC (stereo not drawn)  GTP binding activity (% of control)              102
14       CC(C)OC(=O)Cn1nc(C(F)(F)F)c2c1CCCC2  GTP binding activity (% of control)               93
15  C/C(=N\OC(=O)c1ccccc1)c1c(C)nc2cc(C)ccn12  GTP binding activity (% of control)               85
16  CN1C(=O)/C(=C/c2ccc(C(=O)NC3CCCC3)cc2)Oc2ccccc21  GTP binding activity (% of control)               99
17  CC(C)C(C)(C#N)NC(=O)CSc1nncn1-c1ccccc1 (stereo not drawn)  GTP binding activity (% of control)              104
18  Cc1cc(OCCCN2CCN(Cc3ccccc3)CC2)ccc1[N+](=O)[O-]  GTP binding activity (% of control)               85
19  COc1ccc(N2CCN(C(=O)C3CCN(S(=O)(=O)c4ccc(C)cc4)CC3)CC2)cc1  GTP binding activity (% of control)              101
20       COc1cc(CNC2CCCC2)c(Br)cc1OCc1ccccc1  GTP binding activity (% of control)               96
21       Cc1c(CN2CCCCC2)c(O)n(CCO)c(=O)c1C#N  GTP binding activity (% of control)               94
22       c1ccc(-c2nnc(N3CCOCC3)c3ccccc23)cc1  GTP binding activity (% of control)               97
23  COc1cccc(CNC(=O)CCC2CCCN(C(=O)c3cc(C)[nH]n3)C2)c1 (stereo not drawn)  GTP binding activity (% of control)              100
